Test system: Passive Cutaneous Anaphylaxis (PCA)
Test: Inhibitory effect on passive cutaneous anaphylaxis (PCA) in rats (Test Example 1)
Type: in vivo, rat (male SD)
Settings: Rattus norvegicus, po, 3.1 mg/kg, read-out: Inhibitory rate
Protocol: Male SD rats (5 weeks old) were used as the test animals in groups, each containing 4 animals. The rats were sensitized by intradermal injection of 0.05 ml of the diluted antiserum solution in the dorsal position. […] The inhibitory rate was calculated by the following equation. […]
# if value of inhibition at 3.1 mg/kg reaches 60%, tag T; if it stays below, tag F

Check the entry CCOC(=O)COCCN1CCN2c3ccccc3Cc3ccccc3C2C1 (centres unmarked) [Example 1] : does inhibition at 3.1 mg/kg equal or exceed 60%?
T

Check the entry OCCOCCOCCN1CCN2c3ccccc3Cc3ccccc3C2C1 (centres unmarked) [Example 7] : does inhibition at 3.1 mg/kg equal or exceed 60%?
F

Check the entry NC(=O)CCN1CCN2c3ccccc3Cc3ccccc3C2C1 (centres unmarked) [Prior art compound F, reference compound] : does inhibition at 3.1 mg/kg equal or exceed 60%?
F

Check the entry CCCN(CCC)C(=O)COCCN1CCN2c3ccccc3Cc3ccccc3C2C1 (centres unmarked) [Example 31] : does inhibition at 3.1 mg/kg equal or exceed 60%?
T

Check the entry O=C(O)CN1CCN2c3ccccc3Cn3cccc3C2C1 (centres unmarked) [Prior art compound G, reference compound] : does inhibition at 3.1 mg/kg equal or exceed 60%?
F

Check the entry O=C(O)COCCN1CCN2c3ccc(Br)cc3Cc3ccccc3C2C1 (centres unmarked) [Example 10] : does inhibition at 3.1 mg/kg equal or exceed 60%?
F

Check the entry O=C(O)CCCCCN1CCN2c3ccccc3Cc3ccccc3C2C1 (racemic) [Example 24] : does inhibition at 3.1 mg/kg equal or exceed 60%?
T

Check the entry COC(=O)COCCN1CCN2c3ccc(Br)cc3Cc3ccccc3C2C1 (centres unmarked) [Example 5] : does inhibition at 3.1 mg/kg equal or exceed 60%?
T

Check the entry CCOC(=O)COCCN1CCN2c3ccc(Cl)cc3Cc3ccccc3C2C1 (centres unmarked) [Example 4] : does inhibition at 3.1 mg/kg equal or exceed 60%?
T

Check the entry OCCCN1CCN2c3ccccc3Cc3ccccc3C2C1 (centres unmarked) [Example 16] : does inhibition at 3.1 mg/kg equal or exceed 60%?
T

Check the entry OCCN1CCN2c3ccccc3Cn3cccc3C2C1 (centres unmarked) [Prior art compound D, reference compound] : does inhibition at 3.1 mg/kg equal or exceed 60%?
F

Check the entry O=C(O)COCCN1CCN2c3ccc(Cl)cc3Cc3ccccc3C2C1 (centres unmarked) [Example 9] : does inhibition at 3.1 mg/kg equal or exceed 60%?
T

Check the entry CN(C)C(=O)COCCN1CCN2c3ccccc3Cc3ccccc3C2C1 (centres unmarked) [Example 27] : does inhibition at 3.1 mg/kg equal or exceed 60%?
T

---

Tested on: Antigen-induced Bronchoconstriction
Experiment: Effect on antigen-induced bronchoconstriction in sensitized guinea pigs (Test Example 2)
Format: in vivo, guinea pig (male Hartley)
Conditions: Cavia porcellus, po, 0.4 mg/kg, 60 min before challenge, read-out: Inhibitory rate
What inhibition at 0.4 mg/kg was measured for each of the following?
A number alone suffices; assume %.

Note down inhibition at 0.4 mg/kg recorded for OCCOCCOCCN1CCN2c3ccccc3Cc3ccccc3C2C1 (stereo not drawn)
100

Note down inhibition at 0.4 mg/kg recorded for OCCCN1CCN2c3ccccc3Cc3ccccc3C2C1 (stereo not drawn)
100

Note down inhibition at 0.4 mg/kg recorded for O=C(O)CCCCCN1CCN2c3ccccc3Cc3ccccc3C2C1 (racemic)
100

Note down inhibition at 0.4 mg/kg recorded for CCOC(=O)CCCN1CCN2c3ccccc3Cc3ccccc3C2C1 (racemic)
100

Note down inhibition at 0.4 mg/kg recorded for OCCCCCCN1CCN2c3ccccc3Cc3ccccc3C2C1 (stereo not drawn)
100

Note down inhibition at 0.4 mg/kg recorded for NC(=O)COCCN1CCN2c3ccccc3Cc3ccccc3C2C1 (stereo not drawn)
80

---

What Inhibitory effect (%) on chemotaxis of eosinophil was measured for each of the following?
Test system: eosinophil chemotaxis
Assay: Inhibitory effect of eosinophil chemotaxis to zymosan-activated serum (Test Example 4)
Type: cell-based, guinea pig
Details: 0.1 μg/ml; ZAS
Where a name gives a salt, the structure may show the parent alone.
A number alone suffices; assume %.

Note down Inhibitory effect (%) on chemotaxis of eosinophil recorded for O=C(O)CCCN1CCN2c3ccccc3Cc3ccccc3C2C1 (racemic) [22 HCl racemate]
6

Note down Inhibitory effect (%) on chemotaxis of eosinophil recorded for CCOC(=O)CCCN1CCN2c3ccccc3Cc3ccccc3[C@H]2C1 [19 fumarate S-isomer]
0

Note down Inhibitory effect (%) on chemotaxis of eosinophil recorded for CCOC(=O)CCCN1CCN2c3ccccc3Cc3ccccc3[C@H]2C1 [19 HCl S-isomer]
1

Note down Inhibitory effect (%) on chemotaxis of eosinophil recorded for CCOC(=O)CCCN1CCN2c3ccccc3Cc3ccccc3[C@@H]2C1 [19 HCl R-isomer]
43

Note down Inhibitory effect (%) on chemotaxis of eosinophil recorded for CCOC(=O)CCCN1CCN2c3ccccc3Cc3ccccc3C2C1 (racemic) [19 HCl racemate]
5
